Measured self-cleavage kobs at 2500 uM GlcN6P by item
B1: glmS ribozyme (parent)
chain: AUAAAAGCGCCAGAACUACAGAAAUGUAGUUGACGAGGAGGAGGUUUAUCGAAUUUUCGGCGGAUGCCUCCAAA

# Variants of: B1
# TEST PROTOCOL: self-cleavage kobs at 2500 uM GlcN6P; higher = faster cleavage; RNA array
# ASSAY CONTEXT: with glucosamine-6-phosphate
This sample holds only a part of the variants without activity.

{"MUTANT CODE": "G7C C16A", "self-cleavage kobs at 2500 uM GlcN6P": "< 1e-05 s⁻¹"}
{"MUTANT CODE": "A15C G44U C61G C67G", "self-cleavage kobs at 2500 uM GlcN6P": "< 1e-05 s⁻¹"}
{"MUTANT CODE": "G43U G44A", "self-cleavage kobs at 2500 uM GlcN6P": "< 1e-05 s⁻¹"}

According to the records, this variant G32U G60C displays self-cleavage kobs at 2500 uM GlcN6P of < 1e-05 s⁻¹

According to the records, this variant A12G A33G G44C displays self-cleavage kobs at 2500 uM GlcN6P of < 1e-05 s⁻¹

According to the records, this variant C16G G41C G59A displays self-cleavage kobs at 2500 uM GlcN6P of < 1e-05 s⁻¹
